Hey, just so you know, these numbers are from patent US20250262201A1.

Entries and their AC50
- system-under-test: human PAH with the R408W mutation (Homo sapiens, UniProt P00439, R408W)
- Construct: expressed in transfected cells
- experiment-notes: Cell Based Phenylalanine Flux Assay
- run-conditions: A375 R408W cells, 24 hrs with compound, then 20 μM sepiapterin and 800 μM 13C9,15N-Phenylalanine for 4 hours; 13C-Tyrosine by LC-MS; average where tested multiple times; read-out: AC50

Can you share its AC50? I mean this compound: O=C(c1cnc(-c2ccccn2)o1)N1CCc2[nH]cnc2[C@@H]1c1cc2ccccc2nn1 (single isomer, unassigned)
> 5 µM

Can you share its AC50? I mean this compound: CC1CN(C(=O)c2nnc(C(C)(C)O)o2)C(c2cc3ccccc3cn2)c2nc[nH]c21 (stereo not drawn)
1 to 5 µM

Can you share its AC50? I mean this compound: Cn1nc(COC(F)(F)F)cc1C(=O)N1CCc2[nH]cnc2C1c1ccc2ccccc2n1 (stereo not drawn)
1 to 5 µM

###

Entries and their AC50
- system-under-test: human PAH with the R408W mutation (Homo sapiens, UniProt P00439, R408W)
- Construct: expressed in transfected cells
- Sequence (P00439 1-452 R408W): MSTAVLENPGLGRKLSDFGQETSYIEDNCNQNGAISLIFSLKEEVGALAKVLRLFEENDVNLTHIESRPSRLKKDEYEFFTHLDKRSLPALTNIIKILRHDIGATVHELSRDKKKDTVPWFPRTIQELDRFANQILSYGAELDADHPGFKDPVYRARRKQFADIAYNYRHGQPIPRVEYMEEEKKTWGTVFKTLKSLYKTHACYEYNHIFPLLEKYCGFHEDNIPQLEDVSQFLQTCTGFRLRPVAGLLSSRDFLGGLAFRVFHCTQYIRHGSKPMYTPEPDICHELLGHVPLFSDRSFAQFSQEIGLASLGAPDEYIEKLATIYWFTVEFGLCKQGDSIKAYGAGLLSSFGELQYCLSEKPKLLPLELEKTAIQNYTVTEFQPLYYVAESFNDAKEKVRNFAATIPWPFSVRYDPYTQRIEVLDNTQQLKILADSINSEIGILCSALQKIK
- experiment-notes: Cell Based Phenylalanine Flux Assay
- run-conditions: A375 R408W cells, 24 hrs with compound, then 20 μM sepiapterin and 800 μM 13C9,15N-Phenylalanine for 4 hours; 13C-Tyrosine by LC-MS; average where tested multiple times; read-out: AC50

The cases that follow already have their AC50 on record.
compound	readout-value
O=C(c1ccn[nH]1)N1CCc2[nH]cnc2C1c1ccc2ccccc2n1 (centres unmarked)	1 to 5 µM
COCCNc1nnc(C(=O)N2CCc3[nH]cnc3C2c2ccc3ccccc3n2)o1 (centres unmarked)	1 to 5 µM
O=C(c1cnco1)N1CCc2[nH]cnc2C1c1cn2ccccc2n1 (centres unmarked)	1 to 5 µM
O=C(c1oc(-c2ccccn2)nc1C1CC1)N1CCCc2[nH]cnc2C1c1ccc2ccccc2n1 (centres unmarked)	> 5 µM
O=C(c1n[nH]c2ccccc12)N1CCc2[nH]cnc2C1c1ccc2ccccc2n1 (centres unmarked)	> 5 µM
O=C(C1CC1(F)F)N1CCc2[nH]cnc2C1c1cn2ccccc2n1 (centres unmarked)	1 to 5 µM
O=C(c1nnc(-c2ccc(C(F)(F)F)cn2)o1)N1CCc2[nH]cnc2C1c1ccc2ccccc2n1 (centres unmarked)	1 to 5 µM
O=C(C1CC1)N1CCc2[nH]cnc2C1c1ccc2ccccc2n1 (centres unmarked)	1 to 5 µM
CC(C)(O)c1ccc2c(C(=O)N3CCc4[nH]cnc4C3c3cc4ccccc4cn3)cnn2c1 (centres unmarked)	> 5 µM
N#Cc1ncoc1C(=O)N1CCc2[nH]cnc2C1c1cn2ccccc2n1 (centres unmarked)	1 to 5 µM

Can you share its AC50? I mean this compound: O=C(c1cnc(C2CC2)s1)N1CCc2[nH]cnc2C1c1cn2ccccc2n1 (centres unmarked)
> 5 µM

Can you share its AC50? I mean this compound: CN(C)Cc1ccc2c(C(=O)N3CCc4[nH]cnc4C3c3ccc4ccccc4n3)cnn2c1 (centres unmarked)
1 to 5 µM

Can you share its AC50? I mean this compound: O=C(C1CN(c2ccccn2)C1)N1CCc2[nH]cnc2C1c1cc2ccccc2cn1 (single isomer, unassigned)
1 to 5 µM

Can you share its AC50? I mean this compound: Cn1cc(-c2ncc(C(=O)N3CCc4[nH]cnc4C3c3ncc4ccccc4n3)o2)cn1 (centres unmarked)
> 5 µM

Can you share its AC50? I mean this compound: Cn1cncc1-c1nnc(C(=O)N2CCc3[nH]cnc3C2c2ncc3ccccc3n2)o1 (centres unmarked)
1 to 5 µM

Can you share its AC50? I mean this compound: O=C(c1cnc(C(F)(F)F)o1)N1CCc2[nH]cnc2C1c1cn2ccccc2n1 (centres unmarked)
1 to 5 µM

Can you share its AC50? I mean this compound: O=C(CCc1ccccc1)N1CCc2[nH]cnc2C1c1cn2ccccc2n1 (centres unmarked)
> 5 µM

Can you share its AC50? I mean this compound: O=C(c1cnc(-c2ccccn2)o1)N1CCc2[nH]cnc2C1c1cc2ccccc2nn1 (centres unmarked)
1 to 5 µM

Can you share its AC50? I mean this compound: O=C(c1nnc(N2CC(F)C2)o1)N1CCc2[nH]cnc2C1c1ccc2ccccc2n1 (centres unmarked)
> 5 µM

Can you share its AC50? I mean this compound: Cc1nnc(C(=O)N2CCc3[nH]cnc3C2c2cn3ccccc3n2)o1 (centres unmarked)
1 to 5 µM
